tested on: T1, TNFR1 (Homo sapiens, UniProt P19438)
T1 chain: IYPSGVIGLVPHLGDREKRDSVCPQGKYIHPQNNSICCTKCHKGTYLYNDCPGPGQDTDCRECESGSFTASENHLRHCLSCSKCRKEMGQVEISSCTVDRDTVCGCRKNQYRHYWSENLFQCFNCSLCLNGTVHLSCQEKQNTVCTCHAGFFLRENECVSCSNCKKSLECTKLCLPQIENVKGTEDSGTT
protocol summary: yeast display SC50
Reported values of apparent Kd (screen) for individual entries
Give your result in nM as a bare value.

* E61P (designed binder) SMEEEVEKAAKEYEKKKKEAIEKHLEKLKAKDKEAAERFLKELEEAAKEYAKDEAKTMSEPEAKRRAKKYKEKVLLSELSEEEQKEIKEAEEKLVRTILKYVEEAAK | 0.869
* L76H (designed binder) SMEEEVEKAAKEYEKKKKEAIEKHLEKLKAKDKEAAERFLKELEEAAKEYAKDEAKTMSEEEAKRRAKKYKEKVLHSELSEEEQKEIKEAEEKLVRTILKYVEEAAK | 1.69
* K15Y (designed binder) SMEEEVEKAAKEYEYKKKEAIEKHLEKLKAKDKEAAERFLKELEEAAKEYAKDEAKTMSEEEAKRRAKKYKEKVLLSELSEEEQKEIKEAEEKLVRTILKYVEEAAK | 0.446
* K100A (designed binder) SMEEEVEKAAKEYEKKKKEAIEKHLEKLKAKDKEAAERFLKELEEAAKEYAKDEAKTMSEEEAKRRAKKYKEKVLLSELSEEEQKEIKEAEEKLVRTILAYVEEAAK | 1.4
* E14W (designed binder) SMEEEVEKAAKEYWKKKKEAIEKHLEKLKAKDKEAAERFLKELEEAAKEYAKDEAKTMSEEEAKRRAKKYKEKVLLSELSEEEQKEIKEAEEKLVRTILKYVEEAAK | 10.4
* E37A (designed binder) SMEEEVEKAAKEYEKKKKEAIEKHLEKLKAKDKEAAARFLKELEEAAKEYAKDEAKTMSEEEAKRRAKKYKEKVLLSELSEEEQKEIKEAEEKLVRTILKYVEEAAK | 0.49

Looking up K52T (designed binder) SMEEEVEKAAKEYEKKKKEAIEKHLEKLKAKDKEAAERFLKELEEAAKEYATDEAKTMSEEEAKRRAKKYKEKVLLSELSEEEQKEIKEAEEKLVRTILKYVEEAAK , I see its apparent Kd (screen) listed as 0.446

Data point: E62D (designed binder) SMEEEVEKAAKEYEKKKKEAIEKHLEKLKAKDKEAAERFLKELEEAAKEYAKDEAKTMSEEDAKRRAKKYKEKVLLSELSEEEQKEIKEAEEKLVRTILKYVEEAAK ; apparent Kd (screen) = 0.446
